System: Staphylococcus aureus
Test: Antibacterial activity against Staphylococcus aureus ATCC 25923 by broth microdilution method
Assay type: functional
The entries below come with measured MIC values attached.

O=C(CC1(O)C(=O)N(CCn2cncn2)c2ccccc21)c1ccccc1 (stereo unspecified)	256 µg/mL
O=C(CC1(O)C(=O)N(CCn2cncn2)c2ccccc21)c1ccc(Cl)cc1 (stereo unspecified)	256 µg/mL
Cc1ccc(C(=O)CC2(O)C(=O)N(CCn3cncn3)c3ccccc32)cc1 (stereo unspecified)	256 µg/mL
O=C1C(=O)N(CCn2cnc3ccccc32)c2ccccc21	256 µg/mL
O=C(/C=C1\C(=O)N(CCn2cncn2)c2ccccc21)c1ccccc1	128 µg/mL

Proceed to the following item.
Ask | Look at this compound and give its reported MIC. O=C1C(=O)N(CCn2cncn2)c2ccccc21
Reply | 128 µg/mL

* * *

Test system: Escherichia coli
Assay: Antibacterial activity against Escherichia coli by broth microdilution method
Format: functional
The entries below come with measured MIC values attached.

Example results:
O=C(/C=C1\C(=O)N(CCn2cncn2)c2ccccc21)c1ccc(O)cc1	128 µg/mL
Cc1cc2ncn(CCN3C(=O)C(=O)c4ccccc43)c2cc1C	256 µg/mL
CCCc1nccn1CCN1C(=O)C(=O)c2ccccc21	64 µg/mL
O=C(CC1(O)C(=O)N(CCn2cncn2)c2ccccc21)c1ccc(O)cc1 (stereo unspecified)	256 µg/mL
O=C1C(O)c2ccccc2N1CCn1cncn1 (stereo unspecified)	128 µg/mL

Ask | Look at this molecule and give its reported MIC. O=C(CC1(O)C(=O)N(CCn2cncn2)c2ccccc21)c1ccccc1 (stereo unspecified)
Reply | 256 µg/mL

Ask | Look at this molecule and give its reported MIC. Cc1nccn1CCN1C(=O)C(=O)c2ccccc21
Reply | 256 µg/mL

Ask | Look at this molecule and give its reported MIC. Cc1ccc(C(=O)/C=C2\C(=O)N(CCn3cncn3)c3ccccc32)cc1
Reply | 64 µg/mL

Ask | Look at this molecule and give its reported MIC. O=C1C(=O)N(CCn2ccnn2)c2ccccc21
Reply | 256 µg/mL

Ask | Look at this molecule and give its reported MIC. CC(=O)/C=C1\C(=O)N(CCn2cncn2)c2ccccc21
Reply | 64 µg/mL

Ask | Look at this molecule and give its reported MIC. Cc1ncc([N+](=O)[O-])n1CCN1C(=O)C(=O)c2ccccc21
Reply | 128 µg/mL

Ask | Look at this molecule and give its reported MIC. O=C(/C=C1\C(=O)N(CCn2cncn2)c2ccccc21)c1ccccc1
Reply | 64 µg/mL

Ask | Look at this molecule and give its reported MIC. O=C(CC1(O)C(=O)N(CCn2cncn2)c2ccccc21)c1ccc(Cl)cc1 (stereo unspecified)
Reply | 128 µg/mL

* * *

The entries below come with measured log10 of MIC values attached.
Tested on: Staphylococcus aureus
Assay: Antibacterial activity against Staphylococcus aureus ATCC 29213 by broth microdilution method
Format: functional
Note: values are log10 of MIC expressed in µg/mL.

O=C1C(=O)N(CCn2nnc3ccccc32)c2ccccc21	2.41
O=C(CC1(O)C(=O)N(CCn2cncn2)c2ccccc21)c1ccccc1 (stereo unspecified)	2.41

Ask | Look at this compound and give its reported log10 of MIC. Cc1ccc(C(=O)/C=C2\C(=O)N(CCn3cncn3)c3ccccc32)cc1
Reply | 2.41

Ask | Look at this compound and give its reported log10 of MIC. CC(=O)/C=C1\C(=O)N(CCn2cncn2)c2ccccc21
Reply | 1.81

Ask | Look at this compound and give its reported log10 of MIC. Cc1ccc(C(=O)CC2(O)C(=O)N(CCn3cncn3)c3ccccc32)cc1 (stereo unspecified)
Reply | 2.11

Ask | Look at this compound and give its reported log10 of MIC. CC(=O)CC1(O)C(=O)N(CCn2cncn2)c2ccccc21 (stereo unspecified)
Reply | 2.41

Ask | Look at this compound and give its reported log10 of MIC. O=C1C(=O)N(CCn2cncn2)c2ccccc21
Reply | 1.51

Ask | Look at this compound and give its reported log10 of MIC. O=C(/C=C1\C(=O)N(CCn2cncn2)c2ccccc21)c1ccc(O)cc1
Reply | 1.51

Ask | Look at this compound and give its reported log10 of MIC. O=C1C(O)c2ccccc2N1CCn1cncn1 (stereo unspecified)
Reply | 1.81

Ask | Look at this compound and give its reported log10 of MIC. O=C1C(=O)N(CCn2cnc3ccccc32)c2ccccc21
Reply | 2.41

Ask | Look at this compound and give its reported log10 of MIC. CCCc1nccn1CCN1C(=O)C(=O)c2ccccc21
Reply | 1.20
